Recorded measurements of fold change of 2-Phenylethylamine concentration, one per entry
- System: Ruminococcus gnavus DSM 108212
- ASSAY DETAILS: fold change of 2-Phenylethylamine concentration vs plate DMSO controls (fold change (ratio)); higher = more amine produced, active = hit call of the paper (significant change in both replicates, either direction)
- CONDITION PARAMETERS: incubation time: 27 h, anaerobic, 37 °C
Where a name gives a salt, the structure may show the parent alone.
Respond using a number only.

Fill in: fold change of 2-Phenylethylamine concentration on Ruminococcus gnavus DSM 108212, entry CCOC(=O)O[C@]1(C(=O)COC(=O)CC)CC[C@H]2[C@@H]3CCC4=CC(=O)C=C[C@]4(C)[C@H]3[C@@H](O)C[C@@]21C [Prednicarbate] (20 µM)
1.41

Specify fold change of 2-Phenylethylamine concentration for N=C(N)NS(=O)(=O)c1ccc(N)cc1 [Sulfaguanidine] (20 µM) , system Ruminococcus gnavus DSM 108212.
1.09

Fetch value of fold change of 2-Phenylethylamine concentration on Ruminococcus gnavus DSM 108212 for CC(=O)OCC(=O)[C@@]1(O)CC[C@H]2[C@@H]3CCC4=CC(=O)C=C[C@]4(C)[C@@]3(Cl)[C@@H](Cl)C[C@@]21C [Dichlorisone acetate] (20 µM) .
0.997

Print Ruminococcus gnavus DSM 108212 fold change of 2-Phenylethylamine concentration for Cc1cccc(N(C)C(=S)Oc2ccc3ccccc3c2)c1 [Tolnaftate] (20 µM) .
1.04

# return fold change of 2-Phenylethylamine concentration for OC[C@H]1O[C@H](O[C@H]2O[C@H](CO)[C@@H](O)[C@H](O)[C@H]2O)[C@H](O)[C@@H](O)[C@@H]1O [Trehalose dihydrate] (20 µM) , test system: Ruminococcus gnavus DSM 108212
1.09

Under Ruminococcus gnavus DSM 108212: report fold change of 2-Phenylethylamine concentration of CN(C)CCC[C@@]1(c2ccc(F)cc2)OCc2cc(C#N)ccc21 [Escitalopram oxalate] (20 µM) .
0.965

Return reported fold change of 2-Phenylethylamine concentration for target or system Ruminococcus gnavus DSM 108212, item OCC(O)CN1CCN(c2ccccc2)CC1 (configuration not stated) [Dropropizine] (20 µM) .
1.05

---

- Test system: Escherichia coli IAI1
- ASSAY DETAILS: growth (OD595) fold change vs plate DMSO controls (fold change (ratio)); higher = more growth
- CONDITION PARAMETERS: incubation time: 27 h, anaerobic, 37 °C
Structures can show the parent of a compound that is named as a salt.
RECORDED ENDPOINT: growth
Form field (numeric): enter value without unit.

Field: example entries. Status: answers known.
[[record]]
compound = "C[C@H]1[C@H](OC(=O)CCC(=O)O)O[C@@H]2O[C@@]3(C)CC[C@H]4[C@H](C)CC[C@@H]1[C@@]24OO3 [Artesunate] (20 µM)"
target_system = "Escherichia coli IAI1"
recorded_endpoint = "growth"
reported = 1.01

[[record]]
compound = "Cc1c(N(C)CS(=O)(=O)O)c(=O)n(-c2ccccc2)n1C [Dipyrone sodium salt] (20 µM)"
target_system = "Escherichia coli IAI1"
recorded_endpoint = "growth"
reported = 1.14

[[record]]
compound = "CCC(=O)c1c(O)cc(O)cc1O [Flopropione] (20 µM)"
target_system = "Escherichia coli IAI1"
recorded_endpoint = "growth"
reported = 1.01

[[record]]
compound = "CC(COc1ccccc1)N(CCCl)Cc1ccccc1 (stereo unspecified) [Phenoxybenzamine hydrochloride] (20 µM)"
target_system = "Escherichia coli IAI1"
recorded_endpoint = "growth"
reported = 1.03

[[record]]
compound = "COc1ccc2c(c1)c(CC(=O)OCC(=O)O)c(C)n2C(=O)c1ccc(Cl)cc1 [Acemetacin] (20 µM)"
target_system = "Escherichia coli IAI1"
recorded_endpoint = "growth"
reported = 1.03

[[record]]
compound = "CCOC(=O)C1=C(C)NC(C)=C(C(=O)OC)C1c1cccc([N+](=O)[O-])c1 (stereo unspecified) [Nitrendipine] (20 µM)"
target_system = "Escherichia coli IAI1"
recorded_endpoint = "growth"
reported = 1.01

[[record]]
compound = "COc1cccc(OC)c1C(=O)N[C@@H]1C(=O)N2[C@@H]1SC(C)(C)[C@@H]2C(=O)O [Methicillin sodium] (20 µM)"
target_system = "Escherichia coli IAI1"
recorded_endpoint = "growth"
reported = 1.14

[[record]]
compound = "Nc1cc(-c2ccncc2)c[nH]c1=O [Amrinone] (20 µM)"
target_system = "Escherichia coli IAI1"
recorded_endpoint = "growth"
reported = 0.984

[[record]]
compound = "O=C(O)CCC(=O)c1ccc(-c2ccccc2)cc1 [Fenbufen] (20 µM)"
target_system = "Escherichia coli IAI1"
recorded_endpoint = "growth"
reported = 1.02

[[record]]
compound = "C[C@H](N[C@@H](CCc1ccccc1)C(=O)O)C(=O)N1CCC[C@H]1C(=O)O [Enalaprilat dihydrate] (20 µM)"
target_system = "Escherichia coli IAI1"
recorded_endpoint = "growth"
reported = 0.971


Give a short answer stating reported growth for CNCCCC1c2ccccc2C=Cc2ccccc21 [Protriptyline hydrochloride] (20 µM) .
1.01

Indicate its recorded growth; the compound in question is C=C[C@H]1CN2CC[C@H]1C[C@@H]2[C@@H](O)c1ccnc2ccc(OC)cc12 [Quinidine hydrochloride monohydrate] (20 µM)
1.01
